system: NHDF; experiment: Cytotoxicity against HDF cells assessed as reduction in cell viability at 10 uM incubated for 24 to 48 hrs by MTT assay; assay type: toxicity, cell-based; conditions: human, time 24-48 hrs
Readout label: Activity

{"Molecule": "CC(=O)O[C@@H]1[C@H](O)C2=C(C(=O)N([C@@H](CC(C)C)C(=O)O)C2)[C@@]2(C)CCCC(C)(C)[C@H]12", "Readout label": "Activity", "Result value": "Non-Toxic"}
{"Molecule": "CC(=O)O[C@@H]1[C@H](O)C2=C(C(=O)N([C@H](C(=O)O)[C@@H](C)O)C2)[C@@]2(C)CCCC(C)(C)[C@H]12", "Readout label": "Activity", "Result value": "Non-Toxic"}
{"Molecule": "CC(=O)O[C@@H]1[C@H](O)C2=C(C(=O)N(CC(=O)O)C2)[C@@]2(C)CCCC(C)(C)[C@H]12", "Readout label": "Activity", "Result value": "Non-Toxic"}
